Entries annotated with measured IC50
test system: CEM cells HIV-1 protection, formazan growth assay; assay: NCI AIDS Antiviral Assay; settings: measured here: growth of uninfected CEM cells
Form entry: value (µM) — number only.

Take a look at these entries with their results.
CC(=O)NS(=O)(=O)c1ccc(NC(=O)c2ccccc2SC(=O)CCCCBr)cc1: 148
Cc1nc2ccc(S(=O)(=O)Nc3nccs3)cc2c(=O)n1NS(=O)(=O)c1nccs1: 49

Prompt: Report measured IC50 on CEM cells HIV-1 protection, formazan growth assay; entry: CN1CN(c2ccccc2)C2(CCN(C3Nc4ccccc4O3)CC2)C1=O (centres undefined)
Response: 74.1

----------
tested on: CEM cells HIV-1 protection, formazan growth assay; test: NCI AIDS Antiviral Assay; details: measured here: growth of uninfected CEM cells
reported endpoint: IC50 (µM)
Form entry: value (µM) — number only.

O=c1c2cc(Br)cc(Br)c2[nH]c(=S)n1-c1ccccc1: 126
NS(=O)(=O)c1ccc(CNC(=O)c2ccccc2SC(=O)CCCCC[n+]2ccccc2)cc1: 39.8
CC(=C(C(=O)O)C(=O)O)c1cc(-c2cccs2)cc(-c2ccc(Cl)cc2)c1O: 12.3
CCOc1ccc(N2C(=O)/C(=C/c3ccc(N(CCC#N)CCC#N)cc3)N=C2c2cc([N+](=O)[O-])ccc2Cl)cc1: 21.4
CCNCCNCC.[O-][Cl+3]([O-])([O-])[O-].[Pd+2].c1ccc(-c2ccccn2)nc1: 30.9

Prompt: Return value of IC50 for input O=C1c2ccccc2C(=O)N1[C@@H](Cc1ccccc1)C(=O)n1cccc1CO , no commentary.
Response: 174
